Molecular target: T1, human GFRα3 expressed with a C-terminal mFc tag (human)
T1 construct: also called hGFRα3-mFc
T1 chain: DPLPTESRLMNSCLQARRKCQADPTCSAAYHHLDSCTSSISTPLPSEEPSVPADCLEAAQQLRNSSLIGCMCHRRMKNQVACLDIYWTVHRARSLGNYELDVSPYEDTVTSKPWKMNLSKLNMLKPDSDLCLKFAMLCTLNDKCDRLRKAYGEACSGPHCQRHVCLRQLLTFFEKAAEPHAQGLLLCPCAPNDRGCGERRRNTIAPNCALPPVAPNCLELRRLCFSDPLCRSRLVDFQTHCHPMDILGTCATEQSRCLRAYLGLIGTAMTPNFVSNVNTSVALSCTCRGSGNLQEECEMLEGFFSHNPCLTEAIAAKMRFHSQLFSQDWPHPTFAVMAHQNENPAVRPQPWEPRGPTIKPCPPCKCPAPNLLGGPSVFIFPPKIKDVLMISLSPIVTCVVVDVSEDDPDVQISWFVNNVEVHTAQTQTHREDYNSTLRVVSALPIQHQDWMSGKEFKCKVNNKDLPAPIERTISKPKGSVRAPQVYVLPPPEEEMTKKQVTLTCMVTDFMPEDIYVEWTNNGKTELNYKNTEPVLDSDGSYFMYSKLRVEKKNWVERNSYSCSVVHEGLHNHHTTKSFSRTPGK
Assay: SPR, Ab captured, 37C
From the text: […]
Reported koff values for a set of binders
I only need the number, in s⁻¹, no unit after it.

These solved cases illustrate the format of a correct answer.
H4H2293P (antibody, human IgG4, V domains shown, human IgG4 Fc (H4H)) VH: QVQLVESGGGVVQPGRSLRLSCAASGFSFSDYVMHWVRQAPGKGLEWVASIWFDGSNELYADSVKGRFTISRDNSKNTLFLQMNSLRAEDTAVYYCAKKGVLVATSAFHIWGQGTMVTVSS VL: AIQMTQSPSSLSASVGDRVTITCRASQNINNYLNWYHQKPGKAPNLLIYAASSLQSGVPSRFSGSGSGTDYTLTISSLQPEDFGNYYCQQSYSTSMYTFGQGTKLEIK ... 5.13e-05
H4H2294S (antibody, human IgG4, V domains shown, human IgG4 Fc (H4H)) VH: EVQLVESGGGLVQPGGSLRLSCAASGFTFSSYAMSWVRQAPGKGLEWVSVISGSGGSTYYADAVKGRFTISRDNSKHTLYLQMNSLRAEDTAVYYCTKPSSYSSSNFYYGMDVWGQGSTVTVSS VL: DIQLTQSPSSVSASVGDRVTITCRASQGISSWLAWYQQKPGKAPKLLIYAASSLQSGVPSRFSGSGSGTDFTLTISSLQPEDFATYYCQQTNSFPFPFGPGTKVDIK ... 3.46e-05
H4H2342P (antibody, human IgG4, V domains shown, human IgG4 Fc (H4H)) VH: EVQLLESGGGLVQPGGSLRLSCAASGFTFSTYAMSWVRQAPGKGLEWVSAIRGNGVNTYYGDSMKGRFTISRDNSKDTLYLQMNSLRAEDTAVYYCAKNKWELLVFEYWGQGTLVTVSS VL: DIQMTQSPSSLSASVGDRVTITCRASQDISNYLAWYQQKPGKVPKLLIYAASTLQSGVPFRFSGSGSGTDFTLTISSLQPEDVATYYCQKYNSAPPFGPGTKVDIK ... 4.28e-05
H4H2292S (antibody, human IgG4, V domains shown, human IgG4 Fc (H4H)) VH: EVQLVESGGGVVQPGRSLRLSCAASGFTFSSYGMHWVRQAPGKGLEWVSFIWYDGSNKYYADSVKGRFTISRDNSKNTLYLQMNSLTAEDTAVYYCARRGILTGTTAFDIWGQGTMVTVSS VL: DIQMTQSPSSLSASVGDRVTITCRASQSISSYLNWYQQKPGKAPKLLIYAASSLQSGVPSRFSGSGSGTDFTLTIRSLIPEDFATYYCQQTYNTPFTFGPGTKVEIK ... 2.57e-05
H4H2346S (antibody, human IgG4, V domains shown, human IgG4 Fc (H4H)) VH: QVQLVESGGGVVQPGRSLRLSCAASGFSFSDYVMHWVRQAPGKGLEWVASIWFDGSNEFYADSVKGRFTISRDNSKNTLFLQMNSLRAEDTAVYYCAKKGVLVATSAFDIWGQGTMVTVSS VL: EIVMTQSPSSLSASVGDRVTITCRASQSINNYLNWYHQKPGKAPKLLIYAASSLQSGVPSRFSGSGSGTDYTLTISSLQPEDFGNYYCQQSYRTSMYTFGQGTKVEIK ... 0.000137

The recorded koff for entry H4H2357S (antibody, human IgG4, V domains shown, human IgG4 Fc (H4H)) VH: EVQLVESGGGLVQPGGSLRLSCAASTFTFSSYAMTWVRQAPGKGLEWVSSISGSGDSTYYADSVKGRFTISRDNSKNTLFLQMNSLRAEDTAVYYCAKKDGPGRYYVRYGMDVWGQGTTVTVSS VL: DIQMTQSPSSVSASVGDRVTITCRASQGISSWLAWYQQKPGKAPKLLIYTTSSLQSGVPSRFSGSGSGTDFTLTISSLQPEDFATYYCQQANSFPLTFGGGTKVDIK equals 9.4e-05

The recorded koff for entry H4H2345S (antibody, human IgG4, V domains shown, human IgG4 Fc (H4H)) VH: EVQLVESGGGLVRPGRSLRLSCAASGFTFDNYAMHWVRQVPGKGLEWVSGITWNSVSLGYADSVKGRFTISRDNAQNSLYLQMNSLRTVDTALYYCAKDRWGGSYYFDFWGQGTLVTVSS VL: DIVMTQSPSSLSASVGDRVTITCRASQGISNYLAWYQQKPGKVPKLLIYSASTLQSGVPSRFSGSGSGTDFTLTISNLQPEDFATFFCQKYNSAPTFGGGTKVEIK equals 7.44e-05

The recorded koff for entry H4H2344S (antibody, human IgG4, V domains shown, human IgG4 Fc (H4H)) VH: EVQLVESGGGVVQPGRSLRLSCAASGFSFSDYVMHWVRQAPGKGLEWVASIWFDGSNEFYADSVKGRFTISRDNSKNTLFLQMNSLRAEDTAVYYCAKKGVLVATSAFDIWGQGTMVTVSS VL: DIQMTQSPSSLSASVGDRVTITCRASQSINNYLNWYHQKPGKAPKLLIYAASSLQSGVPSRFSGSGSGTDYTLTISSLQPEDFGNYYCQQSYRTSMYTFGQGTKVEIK equals 8.96e-05

The recorded koff for entry H4H2364S (antibody, human IgG4, V domains shown, human IgG4 Fc (H4H)) VH: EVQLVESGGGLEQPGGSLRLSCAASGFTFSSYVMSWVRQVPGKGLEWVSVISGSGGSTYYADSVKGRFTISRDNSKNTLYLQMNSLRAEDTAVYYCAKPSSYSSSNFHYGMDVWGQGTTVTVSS VL: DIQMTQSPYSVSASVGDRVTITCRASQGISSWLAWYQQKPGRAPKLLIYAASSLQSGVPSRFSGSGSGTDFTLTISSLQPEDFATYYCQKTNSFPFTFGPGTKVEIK equals 4.14e-05

The recorded koff for entry H4H2352S (antibody, human IgG4, V domains shown, human IgG4 Fc (H4H); also called H4H2352S-1) VH: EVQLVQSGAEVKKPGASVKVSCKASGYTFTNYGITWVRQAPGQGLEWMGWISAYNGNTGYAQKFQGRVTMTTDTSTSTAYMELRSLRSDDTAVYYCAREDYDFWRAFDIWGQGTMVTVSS VL: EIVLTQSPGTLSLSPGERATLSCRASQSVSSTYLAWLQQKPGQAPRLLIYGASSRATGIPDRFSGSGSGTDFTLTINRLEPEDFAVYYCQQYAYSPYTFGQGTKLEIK equals 3e-05
